Data origin, for the record: paper PMC4032197

// reported fold less EP2 potency in comparison to 5a for each item listed
target: human EP2 receptors (Homo sapiens)
Sequence (P43116 whole entry): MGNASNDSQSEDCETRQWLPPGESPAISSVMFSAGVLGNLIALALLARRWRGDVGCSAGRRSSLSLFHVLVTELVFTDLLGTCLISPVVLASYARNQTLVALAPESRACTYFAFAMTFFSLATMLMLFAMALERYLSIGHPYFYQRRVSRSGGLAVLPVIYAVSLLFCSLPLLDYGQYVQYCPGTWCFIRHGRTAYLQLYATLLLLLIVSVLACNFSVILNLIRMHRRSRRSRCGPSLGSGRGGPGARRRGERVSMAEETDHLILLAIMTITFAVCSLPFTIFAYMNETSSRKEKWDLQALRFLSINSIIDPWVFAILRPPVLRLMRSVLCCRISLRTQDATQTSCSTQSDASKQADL
Provide only the numeric value, understood in fold.

INSERT INTO measurements (compound, target_system, numeric_result) VALUES
  ('COc1cc(/C=C/C(=O)NCCc2c(C)oc3ccccc23)cc(OC)c1OC', 'human EP2 receptors (Homo sapiens)', 138),
  ('COc1cc(C(N)CC(=O)NCCn2c(C)cc3ccccc32)cc(OC)c1OC (centres unmarked)', 'human EP2 receptors (Homo sapiens)', 180),
  ('COc1ccc(/C=C/C(=O)NCCn2c(C)cc3ccccc32)cc1', 'human EP2 receptors (Homo sapiens)', 7);

Shifting focus to the compound that follows.
Summary line: Cc1cc2ccccc2n1CCNC(=O)C1CC1c1ccc(F)cc1 (centres unmarked) , human EP2 receptors (Homo sapiens), reported fold less EP2 potency in comparison to 5a = 100
